- Tested on: MDA-MB-231 breast
- EXPERIMENT SUMMARY: NCI tumour cell line growth inhibition, 48 h
ASSAY METRIC: TGI

MOLECULE	RESULT
Cc1cc2c3ccccc3ccc2[n+]2ccccc12	> 100 µM
O=C(OCC1OC(OC(=O)c2cc(O)c(O)c(OC(=O)c3cc(O)c(O)c(O)c3)c2)C(OC(=O)c2cc(O)c(O)c(OC(=O)c3cc(O)c(O)c(O)c3)c2)C(OC(=O)c2cc(O)c(O)c(OC(=O)c3cc(O)c(O)c(O)c3)c2)C1OC(=O)c1cc(O)c(O)c(OC(=O)c2cc(O)c(O)c(O)c2)c1)c1cc(O)c(O)c(OC(=O)c2cc(O)c(O)c(O)c2)c1 (configuration not stated)	36.7 µM
Nc1c(C(=O)c2cccc(C#CCN3CCOCC3)c2)cnn1-c1ccc(F)cc1	> 25 µM
CCOC(=O)c1ccc(Nc2sc(C(=O)c3cccc([N+](=O)[O-])c3)c(N)c2C#N)cc1	9.63 µM
NC1CC(=O)c2csc(Cl)c21 (configuration not stated)	22.5 µM
C=CC(=O)N1CCC([C@@H]2CCNc3c(C(N)=O)c(-c4ccc(Oc5ccccc5)cc4)nn32)CC1	56.4 µM
CCOC(=O)Cn1c(C)c(/C=N/NC(=O)c2cc3c(ccc4ccccc43)o2)c2ccccc21	3.33 µM
CC1(O)CC23CC1CCC2(C)C12CCCC(C)(C(=O)O1)C2CC3O (configuration not stated)	> 100 µM
O=Cc1ccc(Oc2c3ccccc3nc3occc23)cc1	22.5 µM
COC(=O)[C@@H]1C2OC(C)(C)OC2CN1C(=O)OCc1ccccc1 (some centres not stated)	> 100 µM
Cc1cc(C)n(-c2nc3ccccc3c(=O)n2-c2ccccc2)n1	> 100 µM
C/C(=N\NC(=O)c1ccccc1O)c1cccc(/C(C)=N/NC(=O)c2ccccc2O)n1	> 100 µM

---

- Test system: SN12C renal
- EXPERIMENT SUMMARY: NCI tumour cell line growth inhibition, 48 h

COMPOUND	TGI
CC(CO)(CO)Nc1ncnc2ccccc12	> 100 µM
COc1ccc(C2=Nn3c(nc4sc(-c5ccccc5)cc4c3=O)SC2)cc1	> 100 µM
COc1cc(O)c2c(c1)C(=O)c1cc(C)cc(O)c1C2=O	> 100 µM
O=C1c2ccccc2-c2n[nH]c3cccc1c23	> 100 µM
OCCNc1ncnc2c1ncn2C1OC(CO)C(O)C1O (stereo not given)	> 100 µM
O=C(Nc1ccccc1)NS(=O)(=O)c1ccc(N2N=C3c4ccccc4CC3C2c2ccccn2)cc1 (stereo not given)	> 100 µM
N#Cc1c(C#N)c(-c2ccco2)n(-c2ccccc2)c1N	> 100 µM
Cc1cc(N(CCCCl)CCCCl)ccc1C=Nc1cccc(Cl)c1	37.1 µM
O=C(/C=C/c1ccccc1O)c1cccnc1	> 100 µM
CO/N=C(/COc1c(-c2ccccc2)oc2ccccc2c1=O)c1ccc(OC)cc1	> 100 µM
ICCC(c1ccccc1)(c1ccccc1)c1ccccc1	27.2 µM
CCCCCCCCCCCC[n+]1ccccc1	4.11 µM
Cc1ccc2c(Nc3cccc(Cl)c3F)ncc(NC(=O)c3csc4c(N)ncnc34)c2c1	> 100 µM
Cc1cc(C)n(-c2nc3ccccc3c(=O)n2-c2ccccc2)n1	> 100 µM
Cc1ccccc1-c1c(N)nc(N)nc1C(=O)Nc1nccs1	> 100 µM
C/C1=C\[C@H](C)C[C@H](C)OC(=O)C[C@H](c2ccc(O)cc2)NC(=O)[C@H](Cc2ccc(O)c(Br)c2)N(C)C(=O)[C@H](C)NC(=O)[C@@H](C)C1	> 25 µM
CCC[CH2][Ge]([CH2]CCC)([CH2]CCC)[O]C(=O)C(O)c1ccccc1 (stereo not given)	23.4 µM
COc1ccc2oc(=O)c(CC=C(C)C)c(O)c2c1C	> 100 µM
CC(C)(C)CC(C)(C)N=C(N)NO	> 100 µM
c1ccc(N=c2sc3ccccc3sc2=Nc2ccccc2)cc1	3.15 µM
